system: RAW264.7; experiment: Cytotoxicity against mouse RAW264.7 cells assessed as cell viability after 48 hrs by MTT assay; type: cell-based; conditions: raw264.7, 48 h
MEASURED ATTRIBUTE: Activity

The cases that follow already have their Activity on record.
Nc1nc2c(ncn2[C@H]2C[C@H](O)[C@@H](CO)O2)c(=O)[nH]1
Non-toxic
COc1nc(N)c2[nH]cnc2n1
Non-toxic
Cc1cn([C@@H]2O[C@H](CO)[C@@H](O)[C@@H]2O)c(=O)[nH]c1=O
Non-toxic
COc1nc(N)c2ncn([C@H]3C[C@H](O)[C@@H](CO)O3)c2n1
Non-toxic
Nc1nc2c(nc(O)n2[C@H]2C[C@H](O)[C@@H](CO)O2)c(=O)[nH]1
Non-toxic

// next item, Activity requested
Data request: Could you tell me which Activity is on file for `COc1nc(N)c2ncn([C@@H]3O[C@H](CO)[C@@H](O)[C@H]3O)c2n1` ?
Data returned: Non-toxic
